# targetOrTestSystem: Integrin alpha-4/beta-7 (Mus musculus) (UniProt Q00651+P26011)
# assayExplanation: Inhibition of alpha4beta7 assessed as inhibition of Mn(2+)-activated adhesion of mouse TK-1 T cells to mouse MAdCAM-1 at 50 uM incubated for 1 hr by cell adhesion assay
# Type: cell-based
*1 amine or outer side, *2 acyl side, *3 side chain or, on linkers, in order; H or OH if unused. Where a SMILES comes first, the peptide text is derived from it. [ ]: non-standard residue; d: D form. The star is where a group is joined. X7 = O=C([C@H](Cc1ccc(-c2cccc([N+](=O)[O-])c2)cc1)N[*:1])[*:2]; X3 = COc1cccc(OC)c1-c1ccc(C[C@H](N[*:1])C(=O)[*:2])cc1; X6 = COc1ccc(-c2ccc(C[C@H](N[*:1])C(=O)[*:2])cc2)cc1OC; Biotin = O=C1N[C@H]2[C@H](CS[C@H]2CCCCC(=O)*)N1; X1 = O=C([C@H](Cc1ccc(C2CCCCC2)cc1)N[*:1])[*:2]
Hi, to clarify the labels: yes covers inhibition from 40% upward, no covers anything below 40%.

# count of solved cases: 4
INSERT INTO assay_data (compound, classification) VALUES
  ('COc1ccc(-c2ccc(C[C@H](NC(=O)[C@H](CCCNC(=N)N)NC(=O)[C@H](CCC(=O)O)NC(=O)[C@H](CCCNC(=N)N)NC(=O)[C@H](CCCNC(=N)N)NC(=O)[C@H](CCCNC(=N)N)NC(=O)[C@H](CCCNC(=N)N)NC(=O)[C@H](CCCNC(=N)N)NC(=O)[C@H](CCCNC(=N)N)NC(=O)[C@H](CCCNC(=N)N)NC(=O)[C@H](CCCNC(=N)N)NC(=O)CCCC[C@@H]3SC[C@@H]4NC(=O)N[C@@H]43)C(=O)O)cc2)cc1OC (Biotin-RRRRRRRRER[X6]-OH)', 'no'),
  ('COc1cccc(OC)c1-c1ccc(C[C@H](NC(=O)[C@H](CCCNC(=N)N)NC(=O)[C@H](CCC(=O)O)NC(=O)[C@H](CCCNC(=N)N)NC(=O)[C@H](CCCNC(=N)N)NC(=O)[C@H](CCCNC(=N)N)NC(=O)[C@H](CCCNC(=N)N)NC(=O)[C@H](CCCNC(=N)N)NC(=O)[C@H](CCCNC(=N)N)NC(=O)[C@H](CCCNC(=N)N)NC(=O)[C@H](CCCNC(=N)N)NC(=O)CCCC[C@@H]2SC[C@@H]3NC(=O)N[C@@H]32)C(=O)O)cc1 (Biotin-RRRRRRRRER[X3]-OH)', 'no'),
  ('N=C(N)NCCC[C@H](NC(=O)CCCC[C@@H]1SC[C@@H]2NC(=O)N[C@@H]21)C(=O)N[C@@H](CCCNC(=N)N)C(=O)N[C@@H](CCCNC(=N)N)C(=O)N[C@@H](CCCNC(=N)N)C(=O)N[C@@H](CCCNC(=N)N)C(=O)N[C@@H](CCCNC(=N)N)C(=O)N[C@@H](CCCNC(=N)N)C(=O)N[C@@H](CCCNC(=N)N)C(=O)N[C@@H](CCC(=O)O)C(=O)N[C@@H](CCCNC(=N)N)C(=O)N[C@@H](Cc1ccc(O)cc1)C(=O)O (Biotin-RRRRRRRRERY-OH)', 'no'),
  ('N=C(N)NCCC[C@H](NC(=O)CCCC[C@@H]1SC[C@@H]2NC(=O)N[C@@H]21)C(=O)N[C@@H](CCCNC(=N)N)C(=O)N[C@@H](CCCNC(=N)N)C(=O)N[C@@H](CCCNC(=N)N)C(=O)N[C@@H](CCCNC(=N)N)C(=O)N[C@@H](CCCNC(=N)N)C(=O)N[C@@H](CCCNC(=N)N)C(=O)N[C@@H](CCCNC(=N)N)C(=O)N[C@@H](CCC(=O)O)C(=O)N[C@@H](CCCNC(=N)N)C(=O)N[C@@H](Cc1ccc(C2CCCCC2)cc1)C(=O)O (Biotin-RRRRRRRRER[X1]-OH)', 'yes');

Here is another compound to look at.
[ask] Say whether N=C(N)NCCC[C@H](NC(=O)CCCC[C@@H]1SC[C@@H]2NC(=O)N[C@@H]21)C(=O)N[C@@H](CCCNC(=N)N)C(=O)N[C@@H](CCCNC(=N)N)C(=O)N[C@@H](CCCNC(=N)N)C(=O)N[C@@H](CCCNC(=N)N)C(=O)N[C@@H](CCCNC(=N)N)C(=O)N[C@@H](CCCNC(=N)N)C(=O)N[C@@H](CCCNC(=N)N)C(=O)N[C@@H](CCC(=O)O)C(=O)N[C@@H](CCCNC(=N)N)C(=O)N[C@@H](Cc1ccc(-c2cccc([N+](=O)[O-])c2)cc1)C(=O)O (Biotin-RRRRRRRRER[X7]-OH) shows inhibition of 40% or more.
[reply] yes

###

# targetOrTestSystem: Integrin alpha-4/beta-7 (Mus musculus) (UniProt Q00651+P26011)
# assayExplanation: Inhibition of alpha4beta7 assessed as inhibition of Mn(2+)-activated adhesion of mouse TK-1 T cells to mouse MAdCAM-1 at 100 uM incubated for 1 hr by cell adhesion assay
# Type: cell-based
*1 amine or outer side, *2 acyl side, *3 side chain or, on linkers, in order; H or OH if unused. Where a SMILES comes first, the peptide text is derived from it. [ ]: non-standard residue; d: D form. The star is where a group is joined. X7 = O=C([C@H](Cc1ccc(-c2cccc([N+](=O)[O-])c2)cc1)N[*:1])[*:2]; X6 = COc1ccc(-c2ccc(C[C@H](N[*:1])C(=O)[*:2])cc2)cc1OC; Bip(4'-Me) = Cc1ccc(-c2ccc(C[C@H](N)C(=O)O)cc2)cc1; Biotin = O=C1N[C@H]2[C@H](CS[C@H]2CCCCC(=O)*)N1; Bip = N[C@@H](Cc1ccc(-c2ccccc2)cc1)C(=O)O
quantity: inhibition (%)
A number alone suffices; assume %.

INSERT INTO measurements (molecule, unitofmeasurement, val) VALUES
  ('Cc1ccc(-c2ccc(C[C@H](NC(=O)[C@H](CCCNC(=N)N)NC(=O)[C@H](CCC(=O)O)NC(=O)[C@H](CCCNC(=N)N)NC(=O)[C@H](CCCNC(=N)N)NC(=O)[C@H](CCCNC(=N)N)NC(=O)[C@H](CCCNC(=N)N)NC(=O)[C@H](CCCNC(=N)N)NC(=O)[C@H](CCCNC(=N)N)NC(=O)[C@H](CCCNC(=N)N)NC(=O)[C@H](CCCNC(=N)N)NC(=O)CCCC[C@@H]3SC[C@@H]4NC(=O)N[C@@H]43)C(=O)O)cc2)cc1 (Biotin-RRRRRRRRER[Bip(4''-Me)]-OH)', '%', 57.3),
  ('N=C(N)NCCC[C@H](NC(=O)CCCC[C@@H]1SC[C@@H]2NC(=O)N[C@@H]21)C(=O)N[C@@H](CCCNC(=N)N)C(=O)N[C@@H](CCCNC(=N)N)C(=O)N[C@@H](CCCNC(=N)N)C(=O)N[C@@H](CCCNC(=N)N)C(=O)N[C@@H](CCCNC(=N)N)C(=O)N[C@@H](CCCNC(=N)N)C(=O)N[C@@H](CCCNC(=N)N)C(=O)N[C@@H](CCC(=O)O)C(=O)N[C@@H](CCCNC(=N)N)C(=O)N[C@@H](Cc1ccc(-c2ccccc2)cc1)C(=O)O (Biotin-RRRRRRRRER[Bip]-OH)', '%', 91.3);

[ask] Given the molecule N=C(N)NCCC[C@H](NC(=O)CCCC[C@@H]1SC[C@@H]2NC(=O)N[C@@H]21)C(=O)N[C@@H](CCCNC(=N)N)C(=O)N[C@@H](CCCNC(=N)N)C(=O)N[C@@H](CCCNC(=N)N)C(=O)N[C@@H](CCCNC(=N)N)C(=O)N[C@@H](CCCNC(=N)N)C(=O)N[C@@H](CCCNC(=N)N)C(=O)N[C@@H](CCCNC(=N)N)C(=O)N[C@@H](CCC(=O)O)C(=O)N[C@@H](CCCNC(=N)N)C(=O)N[C@@H](Cc1ccc(-c2cccc([N+](=O)[O-])c2)cc1)C(=O)O (Biotin-RRRRRRRRER[X7]-OH) , what is its reported inhibition?
[reply] 60.3

[ask] What does the data say about its inhibition? Entry: COc1ccc(-c2ccc(C[C@H](NC(=O)[C@H](CCCNC(=N)N)NC(=O)[C@H](CCC(=O)O)NC(=O)[C@H](CCCNC(=N)N)NC(=O)[C@H](CCCNC(=N)N)NC(=O)[C@H](CCCNC(=N)N)NC(=O)[C@H](CCCNC(=N)N)NC(=O)[C@H](CCCNC(=N)N)NC(=O)[C@H](CCCNC(=N)N)NC(=O)[C@H](CCCNC(=N)N)NC(=O)[C@H](CCCNC(=N)N)NC(=O)CCCC[C@@H]3SC[C@@H]4NC(=O)N[C@@H]43)C(=O)O)cc2)cc1OC (Biotin-RRRRRRRRER[X6]-OH)
[reply] 50.1

[ask] Given the molecule N=C(N)NCCC[C@H](NC(=O)CCCC[C@@H]1SC[C@@H]2NC(=O)N[C@@H]21)C(=O)N[C@@H](CCCNC(=N)N)C(=O)N[C@@H](CCCNC(=N)N)C(=O)N[C@@H](CCCNC(=N)N)C(=O)N[C@@H](CCCNC(=N)N)C(=O)N[C@@H](CCCNC(=N)N)C(=O)N[C@@H](CCCNC(=N)N)C(=O)N[C@@H](CCCNC(=N)N)C(=O)N[C@@H](CCC(=O)O)C(=O)N[C@@H](CCCNC(=N)N)C(=O)N[C@@H](Cc1ccc(O)cc1)C(=O)O (Biotin-RRRRRRRRERY-OH) , what is its reported inhibition?
[reply] 18.2
